Just for reference, ChEMBL document CHEMBL3988442 is where these values come from.

Tested on: Trypanosoma cruzi
method: Trypanosoma cruzi phosphomannomutase and mannose-1-phosphate guanylyltransferase assay
Assay type: functional
Parameters: scale not given: direction of the effect not stated beside the values
conditionNotes: 10 µM
observable: Percent Effect (%)
Answers are plain numbers, in %.

For orientation, consider the following solved cases.
- CCc1nc(CN2CCCN(C(=O)c3cn[nH]c3CC)CC2)cs1: -0.282
- Cn1cc(NC(=O)N2CCC(NS(C)(=O)=O)CC2)ccc1=O: -2.54
- COc1cccc(-c2noc(C3CCN(Cc4cn(C)nc4C)C3)n2)c1 (stereo not given): 5.72
- COc1ccc(CN2CC[C@@H](O)[C@@H]2Cc2ccccc2)cc1: -0.589
- COc1ccc(C[C@H]2CN(C(=O)CN(C)C)CC[C@H]2OC)cc1: 0.563

Go through the list and state Percent Effect for each entry.
1. O=C(Cc1ccc2c(c1)OCCO2)NCCc1nnc2n1CCC2
2. CCS(=O)(=O)N1CCCc2ccc(NC(=O)Cc3ccc(F)cc3)cc21
3. O=C(NCc1cc[nH]n1)NCC(O)COc1cccc(F)c1 (stereo not given)
4. CC(C)CN1CCc2[nH]cnc2C12CCN(C(=O)c1cccnc1)CC2
5. COCCN1C[C@H]2[C@@H](C1)N(Cc1ccc(C)o1)CC[C@H]2OC
6. c1ccc(OCc2nnc3n2CCN(CC2CCOCC2)C3)nc1

1. 3.87
2. -5.82
3. -7.03
4. -3.99
5. 6.94
6. -1.07

Count: 5. Required value per item: Percent Effect.
1. Cn1cc(-c2csc(N3CCOCC3)n2)cn1
2. Cn1cc(C(=O)NC2CCN(C(=O)NCC3CCSCC3)CC2)cn1
3. CS(=O)(=O)c1ccccc1C(=O)NCCCN1CCc2ccccc2C1
4. CC(C)(C)c1cn2nc(N3CCOC(Cn4cncn4)C3)sc2n1 (stereo not given)
5. COc1cccc(-c2noc(C3CCN(Cc4cccs4)C3)n2)c1 (stereo not given)

[1.26, -2.15, 7.03, 7.79, -5.33]
